system name: Steroid 5-alpha-reductase (Rattus norvegicus, UniProt P24008+P31214)
test method notes: In vitro inhibitory activity against rat testosterone 5 alpha reductase was determined
Format: protein assay
reported property: IC50 (nM)

* O=C(O)CCCOc1ccccc1-c1cc2ccc(C(=O)NC(c3ccccc3)c3ccccc3)cc2o1 | 28.5
* COc1ccc(C(NC(=O)c2ccc3cc(-c4ccccc4OCCCC(=O)O)oc3c2)c2ccc(OC)cc2)cc1 | 35.5
* CC(C)Cc1ccc(C(Nc2cccc(C(=O)c3cn(CCCC(=O)O)c4ccccc34)c2)c2ccc(CC(C)C)cc2)cc1 | 118
* COc1ccc(C(NC(=O)c2ccc3oc(-c4ccccc4OCCCC(=O)O)cc3c2)c2ccc(OC)cc2)cc1 | 26.3
* O=C(O)CCCOc1ccccc1-c1cc2ccc(C(=O)NC(c3ccc(F)cc3)c3ccc(F)cc3)cc2o1 | 37.9
* O=C(O)CCCOc1ccccc1-c1cc2cc(C(=O)NC(c3ccccc3)c3ccccc3)ccc2o1 | 155
* O=C(O)CCCOc1ccccc1-c1cc2cc(C(=O)NC(c3ccc(F)cc3)c3ccc(F)cc3)ccc2o1 | 279

Measured values drawn from ChEMBL document CHEMBL1131643 for this set.
